studyTarget: recombinant IRAK-4 kinase (Homo sapiens, UniProt Q9NWZ3)
Sequence (Q9NWZ3 whole entry): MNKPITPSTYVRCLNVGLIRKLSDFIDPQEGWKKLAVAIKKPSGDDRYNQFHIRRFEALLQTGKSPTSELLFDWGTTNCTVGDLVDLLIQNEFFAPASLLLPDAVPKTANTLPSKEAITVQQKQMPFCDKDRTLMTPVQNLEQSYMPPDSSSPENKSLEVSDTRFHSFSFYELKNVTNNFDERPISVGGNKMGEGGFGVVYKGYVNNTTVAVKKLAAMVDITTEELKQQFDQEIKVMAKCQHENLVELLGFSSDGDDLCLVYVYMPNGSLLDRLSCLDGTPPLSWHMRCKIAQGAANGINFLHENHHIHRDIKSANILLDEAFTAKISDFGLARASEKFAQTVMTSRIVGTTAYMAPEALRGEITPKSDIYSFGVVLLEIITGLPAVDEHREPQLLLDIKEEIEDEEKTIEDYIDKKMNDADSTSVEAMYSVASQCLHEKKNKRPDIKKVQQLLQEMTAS
experimentalProtocol: IRAK-4 Biochemical Assay (TR-FRET)
conditionDescription: 30 min pre-incubation, 100 nM Biotin Histone H3, 20 μM ATP, read-out: IC50 values for IRAK4 activity
Where a name gives a salt, the structure may show the parent alone.
Examples of compounds with documented IC50 follow.

{"compound": "Cn1cc2cc(NC(=O)c3coc(-c4ccnc(N)c4)n3)c(N3CCC(O)CC3)cc2n1 [Example 93, hydrochloride]", "valueMeasured": "< 50 nM"}
{"compound": "C[C@H](O)Cn1cc(-c2cccc(C(=O)Nc3cc4cn(C)nc4cc3N3CCC(CO)CC3)n2)cn1", "valueMeasured": "< 50 nM"}
{"compound": "Cc1cc(-c2nc(C(=O)Nc3cc4cnn(C)c4cc3N3CCCC3)co2)ccn1", "valueMeasured": "< 50 nM"}
{"compound": "Cc1cc(-c2nc(C(=O)Nc3cc4cn(C)nc4cc3N3CCCC(O)C3)co2)ccn1 (centres unmarked)", "valueMeasured": "< 50 nM"}
{"compound": "C[C@H](O)Cn1cc(-c2cccc(C(=O)Nc3cc4cnn(C)c4cc3C3CC3)n2)cn1", "valueMeasured": "50 to 100 nM"}
{"compound": "Cc1cc(-c2nc(C(=O)Nc3cc4cn(C5CCCC5)nc4cc3C3CC3)co2)ccn1", "valueMeasured": "< 50 nM"}
{"compound": "Cc1cc(-c2nc(C(=O)Nc3cc4cn(C5CCCC5)nc4cc3C#N)co2)ccn1", "valueMeasured": "< 50 nM"}

Form field: reported IC50 of "Cn1cc2cc(NC(=O)c3coc(N4CC[C@H](N)C4)n3)c(C3CC3)cc2n1"
> 100 nM

Cited source: patent US10160753B2
